Source of measurements: patent US20240270821A1

System: hGLP-1R (Homo sapiens, UniProt P43220)
Sequence (P43220 24-463): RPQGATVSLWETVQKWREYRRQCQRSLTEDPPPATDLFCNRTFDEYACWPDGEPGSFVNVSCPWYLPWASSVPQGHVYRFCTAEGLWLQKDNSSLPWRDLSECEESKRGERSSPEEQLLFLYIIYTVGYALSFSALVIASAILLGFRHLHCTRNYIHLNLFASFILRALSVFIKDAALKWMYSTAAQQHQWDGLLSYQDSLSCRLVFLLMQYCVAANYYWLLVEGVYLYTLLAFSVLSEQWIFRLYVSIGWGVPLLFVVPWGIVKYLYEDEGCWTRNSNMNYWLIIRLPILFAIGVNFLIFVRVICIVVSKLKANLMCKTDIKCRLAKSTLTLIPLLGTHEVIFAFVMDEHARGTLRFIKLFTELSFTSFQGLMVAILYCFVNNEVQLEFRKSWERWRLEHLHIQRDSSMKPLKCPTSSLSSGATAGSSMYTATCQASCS
Test: cell-based or functional assay
Starred links: 1 amine or outer side, 2 acyl side, 3 side chain; linkers in the order of their positions; H or OH if unused. Non-standard residues stand in square brackets, D forms with d. Groups on a side chain read outwards from the residue. No end group written: not given here. *: point of attachment. C20 diacid = O=C(O)CCCCCCCCCCCCCCCCCCC(=O)*; C18 diacid = O=C(O)CCCCCCCCCCCCCCCCC(=O)*; αMePhe(2-F) = C[C@](N)(Cc1ccccc1F)C(=O)O; γGlu = O=C(O)[C@H](CCC(=O)[*:2])N[*:1]; NMeY = CN[C@@H](Cc1ccc(O)cc1)C(=O)O; αMeF = C[C@](N)(Cc1ccccc1)C(=O)O; αMeL = CC(C)C[C@](C)(N)C(=O)O; Dab = NCC[C@H](N)C(=O)O; AEEA = NCCOCCOCC(=O)O; Aib = CC(C)(N)C(=O)O
Property Name: Relative cAMP EC50 (nM)
Express your answer in nM, writing the number without its unit.

Binder	Property Name	Recorded Number
Y[Aib]QGT[αMePhe(2-F)]TSDYSILLDKQAQKAFIEYLLEGGPSSGEPPPSEG-NH2 (not fully specified (residue 20)) [Example 345]	Relative cAMP EC50	0.658
YXQGTFTSDXSQXLDKKAQXAFIEXLLEGGPSSGAPPPSGS (synthetic construct; SITE 2: note = 2-Aminoisobutyric Acid; SITE 10: note = 3-(4-Pyridyl)-L-alanine; SITE 13: note = alpha-methyl-leucine; SITE 17: note = Lysine is chemically modified through conjugation of the epsilon-amino group of the Lysine side chain with (2-[2-(2-Amino-ethoxy)-ethoxy]-acetyl)) [Example 910]	Relative cAMP EC50	1.49

For the binder YXQGTXTSDXSIXLDXKAQXEFIEXLIEGGPSSGEPPPSGS (non-natural residues; lipidated Lys AEEA-γGlu-C18 diacid; C-term amide; synthetic construct; SITE 2: note = 2-Aminoisobutyric Acid; SITE 6: note = alpha-methyl-2-fluoro-L-phenylalanine; SITE 10: note = 3-(4-Pyridyl)-L-alanine; SITE 13: note = alpha-methyl-leucine; SITE 16: note = L-ornithine; SITE 17: note = Lysine is chemically modified through conjugation of the epsil) [Example 644] , what Relative cAMP EC50 is on record?
0.309

For the binder [NMeY][Aib]QGT[αMeF]TSDYSILLDKQAAK([AEEA-AEEA-γGlu-C20 diacid])AFVQWLIEGGPSSGEPPPSEG-NH2 [Example 302] , what Relative cAMP EC50 is on record?
0.621

For the binder YXQGTFTSDXSQXLDXKAQXAFIEXLIAXGPSSGEPPPSGSEE (not fully specified; non-natural residues; Lys acylated γGlu-C18 diacid; C-terminal amide; synthetic construct; SITE 2: note = 2-Aminoisobutyric Acid; SITE 10: note = 3-(4-Pyridyl)-L-alanine; SITE 13: note = alpha-methyl-leucine; SITE 16: note = L-ornithine; SITE 17: note = Lysine is chemically modified through conjugation of the epsilon-amino group of the Lysine side chain with D-Glutami) [Example 1105] , what Relative cAMP EC50 is on record?
0.875

For the binder HXQGTXTSDYSILLDKKAQXAFIEYLEEGGPSSGAPPPS (synthetic construct; SITE 2: note = 2-Aminoisobutyric Acid; SITE 6: note = alpha-methyl-2-fluoro-L-phenylalanine; SITE 17: note = Lysine is chemically modified through conjugation of the epsilon-amino group of the Lysine side chain with (gamma-Glu)2-CO-(CH2)16-CO2H; SITE 20: note = 2-Aminoisobutyric) [Example 426] , what Relative cAMP EC50 is on record?
0.139

For the binder Y[Aib]QGT[αMePhe(2-F)]TSDYSILLDKQAAKEFIEYLIEGGPSSGEPPPSEG-NH2 (not fully specified (residue 20)) [Example 348] , what Relative cAMP EC50 is on record?
0.346

For the binder YXQGTXTSDXSIXLDKKAQXXFIEYLTEGGPSSGEPPPEGSEE (synthetic construct; SITE 2: note = 2-Aminoisobutyric Acid; SITE 6: note = alpha-methyl-2-fluoro-L-phenylalanine; SITE 10: note = 3-(4-Pyridyl)-L-alanine; SITE 13: note = alpha-methyl-leucine; SITE 17: note = Lysine is chemically modified through conjugation of the epsilon-amino group of the Lysine) [Example 652 (SEQ ID NO: 658)] , what Relative cAMP EC50 is on record?
0.426

For the binder YXQGTFTSDXSQXLDXKAQXAFIQXLIEGGPSSGAPPPSGSEEE (Glu-γGlu-C18 diacid on Lys; non-natural residues; amide; synthetic construct; SITE 2: note = 2-Aminoisobutyric Acid; SITE 10: note = 3-(4-Pyridyl)-L-alanine; SITE 13: note = alpha-methyl-leucine; SITE 16: note = L-ornithine; SITE 17: note = Lysine is chemically modified through conjugation of the epsilon-amino group of the Lysine side chain with (Glu)-(ga)) [Example 1077] , what Relative cAMP EC50 is on record?
1.48

For the binder YXQGTFTSDFSKXLDKKAQXAFIEYLLEXGPSSGAPPPSSG (acylated Lys; Aib, αMeL non-natural; C-terminal amide; synthetic construct; SITE 2: note = 2-Aminoisobutyric Acid; SITE 13: note = alpha-methyl-leucine; SITE 17: note = Lysine is chemically modified through conjugation of the epsilon-amino group of the Lysine side chain with (2-[2-(2-Amino-ethoxy)-ethoxy]-acetyl)-(gamma-Glu)-CO-(CH2) 18-CO2H; SITE 20: n) [Example 44] , what Relative cAMP EC50 is on record?
1.66

For the binder Y[Aib]QGTFTSDFS[Dab][αMeL]LDKK([AEEA-γGlu-C18 diacid])AQ[Aib]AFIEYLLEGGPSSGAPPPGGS-NH2 [Example 67] , what Relative cAMP EC50 is on record?
4.07
